experiment: yeast display, Sf9 membrane polyspecificity reagent, FACS + sequencing; frameworks hold sequencing errors
ASSAY ENDPOINT: polyreactivity (PSR sort gate)

Check out these entries, answers already filled in.
QVQLVESGGGLVQAGGSLRLSCAASGSIFWWYGMGWDRQAPGKERELVADITSGGGTYYADSVKGRFTISRDNAKNTVYLQLNSLKPEDTAVYYCAADVRAYRFDYYFDYWGQGTQVTVSS : low polyreactivity
QVQLVESGGGLVQAGGSLRLSCAASGSTFIIYAMGWYRQAPGKERELVAAISWSGGSTYYADSVKGRFTISRDNAKNTVYLQMNSLKPEDTAVYYCAVVYRTRWSDYDYWGQGTQVTVSS : high polyreactivity
QVQLVESGGGLVQAGASLRLSCAASGRTYRWYTMGWYRPAPGKERELVAAITSRGGSTYADSVKGRFTISRDNAKNTVYLQMNSLKPEDTAVYYCNAARTYQYDYWGQGTQVTVSS : high polyreactivity
QVQLVESGGGLVQAGGSLRLSCAASGRLFKIYAMGWYRQAPGKERELVATISSGGRTNYADSVKGRFTISRDNAKNTVYLQMNSLKPEDTAVYYCNAGARVLYETESFDYWGQGIQVTVSS : low polyreactivity
QVQLVESGGGLVQAGGSLRLSCAASGSIFFIYAMAWYRQAPGKERELVATISRSDVSTFYADSVKGRFTISRDNAKNTVYLQMNSLKPEDTAVYYCAARTGRGDRTRRYYYWGQGTQVTVSS : high polyreactivity
QVQLVESGGGLVQAGGSLRLSCAASGSIFARYAMGWYRQAPGKERELVATISYRGSSTYYADSVKGRFTISRDNAKNTVYLQMNSLKPEDTAVYYCAARTYRRIYAYYRFDYWGQGTQVTVSS : low polyreactivity
QVQLVESGGGLVQAGGSLRLSCAASGFTFRWYAMGWYRQAPGKERELVAAITGSGGSTYYADSVKGRFTISRDNAKNTVYLQMNSLKPEDTAVYYCNRYGVRYYRYDYWGQGTQVTVSS : high polyreactivity
QVQLVESGGGLVQAGGSLRLSCAASGLTFGDYALGWYRQAPGKDRELVAVISRSGGSTYYADSVKGRFTISRDNAKNTVYLQMNSLKPEDTAVYYCAAEYYSYRYDGDYWGQGTQVTVSS : low polyreactivity

Look up polyreactivity (PSR sort gate) for this sequence: QVQLVESGGCLVQAGGSLRLSCAASGLIFRLYAMGWYRQAPGKERELVAAISVSGAITYYADSVKGRFTISRDKAKNTVYLQMNSLKPEDTAVYYCNAEAVFGRDGYVYWEVDYWGQGTQVTVSS
low polyreactivity

Given the entry QVQLVESGGGLVQAGGSLRLSCAASGIIFRGYVMGWYRQAPGKERELVAAISTSGGRTSYADSVKGRFTISRDNAKNTVYLQMNSLKPEDTAVYYCAARPLYSYSQWGYGYWGQGTQVTVSS , report its measured polyreactivity (PSR sort gate).
high polyreactivity

Entry under review: QLQLVESGGGLVQAGGSLRLSCAASGRIFEYYAMGWYRQAPGKERELVAAISWSGGSTYYADSVKGRFTISRDNAKNTVYLQMNSLTPEDTAVYYCARDLPYYSISRYDYWGLGTQVTVSS . Reported polyreactivity (PSR sort gate)?
high polyreactivity

Give the measured polyreactivity (PSR sort gate) of QVQLVESGGGLVQAGGSLRLSCAASGFILPHYTMGWYRQAPGKERELVAAITSGVSTYYADSVKGRFTISRDNAKNTVYLQMNSLKPEDTAVYYCNALATYIGYKYDYWGQGTQVTVSS .
low polyreactivity

---

assay: yeast display, Sf9 membrane polyspecificity reagent, FACS + sequencing; frameworks hold sequencing errors
ASSAY ENDPOINT: polyreactivity (PSR sort gate)

QLHLVESGGGLVQAGGSLRLSCAASVSIFNIYAMGWYRQAPGKERELVATITGIADSTYYADSVKGRFTISRDNAKNTVYLQMNSLKPEDTAVYYCAADKYVAEYDYWGQGTQVTVSS : low polyreactivity
QVQLVESGGGLVQAGGSLRLSCAASGLTFDYYVMGWYRQAPGKERELVATISWSGDITYYADSVKGRFTISRDNAKNTVYLQMNSLKPEDTAVYYSATDKSYSSWSAQYDYWGQGTQVTVSS : low polyreactivity
QVQLVESGGGLVQAGGSLRLSCAASGYTFRYNAMGWYKQAPWKDRELVATITRGGSTNYADSVKGRFTISRDNAKNTVYLQMNSLKPEDTEVYYCNKEAAPLGFVPSYYGRDYWGQGTQVTVSS : low polyreactivity

---

test: yeast display, Sf9 membrane polyspecificity reagent, FACS + sequencing; frameworks hold sequencing errors
ASSAY ENDPOINT: polyreactivity (PSR sort gate)

QVQLVESGGGLVQAGGSLRLSCAASGGIFNYYAMGWYRQAPGKDRELVAAISASGGSTYYADSVKGRFTISRDYAKNTVYLQMNSLKPEDTAVYYCASGLPYGYGYDYWGQGTQVTVSS : low polyreactivity
QVQLVESGGGLVQAGGSLRLICAAYGITIGVYAMGWYRQAPVKERELVAAISSSGDTTYYADSVKGRFTISRDNAKNTVYLQKNSLKPEDTAVYYSAAYSHHQFSRSEYYYWGQGTQVTVSS : low polyreactivity

---

assay: yeast display, Sf9 membrane polyspecificity reagent, FACS + sequencing; frameworks hold sequencing errors
ASSAY ENDPOINT: polyreactivity (PSR sort gate)

Sample records with polyreactivity (PSR sort gate):
QVQIVESGGGLVQAGGSLRLSSAASGNIFVYYAMGGYRQAPGKERELVAALTSDVSTYYADSVKGRFTISRDNAKNTVYLQMNSLKPEDTAVYYCNKVTPGRYYYSVTTGDYWGQGTKVTVSS : low polyreactivity
QVQLVESGGGLVKAGGSLRLSSAATGSTFWEYVMGWYRQPPGKERELVAAITTNDDSTYYADSVKGRFTISRDNAKKTVYLQMNSLKPEDTAVYYCNADQITGQFDYWGQGTQVTVSS : low polyreactivity
QVQLVESGGGLVQAGGSLRLSCAASGSTFGWYAMGWYRQAPGKERELVAAISYIGGSTYADSVKGRFTISRDNAKNTVYLQMKSLKPEDTAVYYCNAVVYGKSYGSRIYDYWGQGTQVTVSS : high polyreactivity
QDQLGESGGGLVQAGGSLRLSGAASGSTFSRNAMGWYRQAPGKERELVAAISRSGGSTHYADSVKGRFTISRDNAKNTVYLQMNSQKPEDTAVYYCAARVPRGDLPGYHYAYYYWGQGTQVTVSS : high polyreactivity
QVQLVESAGGLVQAGGSLRLSCAASGSIFERNVIGWYRRAPGKERELVPRISTSGGSTTYYADSVKGRFTISRDTAKNTVYLQMNSLKPEDTAVYYCAAGRGYWWWYGYDYWGQGTQVTVSS : low polyreactivity

# lookup: polyreactivity (PSR sort gate) of QVQLVESGGGLVQAGGSLRLSCAASGSTFATNAMGWYRQAPGKERELVATISSDGSTNYADSVKGRFTISRDNAKNTVYLQMNSLKPEDTAVYYCATEVTYPWHVDEGDYWGQGTQVTVSS
low polyreactivity

---

assay: yeast display, Sf9 membrane polyspecificity reagent, FACS + sequencing; frameworks hold sequencing errors
ASSAY ENDPOINT: polyreactivity (PSR sort gate)

Answered cases to consult:
QVQLVESGGGLVQAGGSLRLSCAASGFTFQYYTKGWYRQAPGKERELVAAISARGGSTYYADSVKGRFTISRDNAKNTVYLQMNSLKPEDTAVYYCNTVGIGAWGYSYPDEDNYWGQGTQVTVSS : low polyreactivity
QVQLVESGGGLDQAGGSLRLSCAASGYIVRNAMGWYRQAPWKERELVAAISRRGGSTYYADSVKGRFTISRDNAKNTVYLQMNSLKPEDTAVYYCAKDNVIPSFVADYYYWGQGTQVTVSS : high polyreactivity
QVQLVESGGGLVQAGGSLRLSCAASGRIFRKNAMGWYRQAPGKERELVAAITSSGNTYYADSVKGRFTISRDNAKNTVYFQMNSLKPEDTAVYYCAARLKWLNRYGYDYWGQGTQVTVSS : low polyreactivity
QVQLVESGGGLVQAGGSLRLSCAASGITFYLYAMGWYRQAPGKERELVAAISGRGGITYYADSVKGRFTISRDNAKNTVYLQMNSLKPEDTAVYYCAAGKLIWGQGTQVTVSS : high polyreactivity

What does the record list as polyreactivity (PSR sort gate) for QVQLVESGGGLVQAGGSLRLSCAASGSTLYRYAMGWYRQAPGKERELVAAISSSGGSTYYADSVKGRFTISRDNAKNTVYLQMNSLKPEDTAVYYCAAYFSTAPKSQYKLDYWGQGTQVTVSS ?
high polyreactivity

I have this sequence here, QVQLVESGGGLVQAGGSLRLSCAASGSISGSYAMGWYRQAPGKERELVASITTSGGGTYYADSVKGRFTISRDNAKNTVYLQMNSLKPEDTAVYYCAVEYGYPYAGLDYWGQGTQVTVSS , and I need its recorded polyreactivity (PSR sort gate).
low polyreactivity

Would you kindly share the measured polyreactivity (PSR sort gate) for QVQLVESGGGLVQAGGSLRLSCAASGRIFGRYAMGWYRQAPGKERELVAAITSSGGNTYYADSVKGRFTISRDNAKNTVYLQMNSLKPEDTAVYYCNALSARSRLQSDYWGQGTQVTVSS ?
high polyreactivity

May I ask what polyreactivity (PSR sort gate) has been recorded for QVQLVESGGGLVQAGGSLRLSCAASGLIFFVYAMGWYRQAPGKERELVAAISASGVSTNYADSVKGRFTISRDNAKNTVYLQMNSLKPEDTAVYYCAAGRGGYGYWGQGTQVTVSS ?
low polyreactivity
